molecular target: human μ opioid receptor (OPRM1) (Homo sapiens, UniProt P35372); experiment: cell-based; assay type: cell-based; conditions: OPRM1, read-out: MOR cAMP %Emax ± SEM
Sequence (P35372 whole entry): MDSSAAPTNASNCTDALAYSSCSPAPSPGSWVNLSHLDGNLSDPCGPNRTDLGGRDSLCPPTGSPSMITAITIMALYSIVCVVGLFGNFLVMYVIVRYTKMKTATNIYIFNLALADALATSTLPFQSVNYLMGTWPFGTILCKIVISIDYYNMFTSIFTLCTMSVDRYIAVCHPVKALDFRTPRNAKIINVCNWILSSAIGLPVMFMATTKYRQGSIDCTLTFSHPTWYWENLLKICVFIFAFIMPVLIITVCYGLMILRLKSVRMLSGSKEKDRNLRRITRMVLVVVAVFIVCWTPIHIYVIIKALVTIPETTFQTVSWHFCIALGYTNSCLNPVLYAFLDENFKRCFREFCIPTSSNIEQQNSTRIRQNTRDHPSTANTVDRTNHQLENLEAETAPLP
ASSAY READOUT: Emax (%)
// units = %; emit number, no label

compound="NC(=O)c1ccccc1N1C2CCC1CN(CCCc1ccccc1)C2 [Compound 14]" study_system="human μ opioid receptor (OPRM1) (Homo sapiens, UniProt P35372)" assay_readout=Emax units_text=% recorded_result=102
compound="NC(=O)c1cccc(N2C3CCC2CN(CCCc2ccccc2)C3)c1 [Compound 13]" study_system="human μ opioid receptor (OPRM1) (Homo sapiens, UniProt P35372)" assay_readout=Emax units_text=% recorded_result=102
compound="NC(=O)c1cc(N2C3CCC2CN(CCCc2ccccc2)C3)ccc1O [Compound 16]" study_system="human μ opioid receptor (OPRM1) (Homo sapiens, UniProt P35372)" assay_readout=Emax units_text=% recorded_result=60.9
compound="NC(=O)c1cc(N2C3CCC2CN(CCCc2ccccc2)C3)ccc1F [Compound 18]" study_system="human μ opioid receptor (OPRM1) (Homo sapiens, UniProt P35372)" assay_readout=Emax units_text=% recorded_result=100
compound="NC(=O)c1cccc(N2C3CCC2CN(CCCc2ccccc2)C3)c1F [Compound 19]" study_system="human μ opioid receptor (OPRM1) (Homo sapiens, UniProt P35372)" assay_readout=Emax units_text=% recorded_result=101

The recorded Emax for entry Oc1ccc(N2C3CCC2CN(CCCc2ccccc2)C3)cc1 [Compound 1] equals 58.7

The recorded Emax for entry CC(C)(O)c1cccc(N2C3CCC2CN(CCCc2ccccc2)C3)c1 [Compound 4] equals 108

Each recorded value in this set is attributed to paper PMC12374581.
